Values from the NIST ThermoML archive (doi:10.1021/je050402s)

assay: xn = mol fraction of the nth substance listed; settings: 288.15 K; 100.5 kPa; Liquid; Capillary tube (Ostwald / Ubbelohde) method; x1 = 0.9
Overview of recorded viscosity for various compounds
Reply numerically in mPa·s, unit not repeated.

The following compounds have reported results that may help.
{"COMPOUND": "CCOC(=O)CC(C)=O [ethyl 3-oxobutanoate] + CCO", "viscosity, mPa·s": 1.773}
{"COMPOUND": "CCOC(=O)CC(C)C [ethyl 3-methylbutanoate] + CCO", "viscosity, mPa·s": 0.839}
{"COMPOUND": "COC(=O)c1ccccc1 [methyl benzoate] + CCO", "viscosity, mPa·s": 2.118}
{"COMPOUND": "CCC(=O)OCc1ccccc1 [benzyl propanoate] + CCO", "viscosity, mPa·s": 2.383}

Consider the record given below.
Task: Endpoint output: viscosity of CC(=O)OCc1ccccc1 [benzyl ethanoate] + CCO . Value?
Result: 2.339

---

test: xn = mol fraction of the nth substance listed; conditions: 318.15 K; 100.5 kPa; Liquid; Capillary tube (Ostwald / Ubbelohde) method; x1 = 0.55
MEASURED_ATTRIBUTE: viscosity (mPa·s)
Expressed in mPa·s, but write only the number.

Recorded results for 3 compounds are shown here.
{"COMPOUND": "CCOC(=O)CC(C)C [ethyl 3-methylbutanoate] + CCO", "MEASURED_ATTRIBUTE": "viscosity", "REPORTED_MEASUREMENT": 0.554}
{"COMPOUND": "CCC(=O)OCc1ccccc1 [benzyl propanoate] + CCO", "MEASURED_ATTRIBUTE": "viscosity", "REPORTED_MEASUREMENT": 1.107}
{"COMPOUND": "CCOC(=O)CC(C)=O [ethyl 3-oxobutanoate] + CCO", "MEASURED_ATTRIBUTE": "viscosity", "REPORTED_MEASUREMENT": 0.836}

Task: I would be grateful if you could share the reported viscosity for CC(=O)OCc1ccccc1 [benzyl ethanoate] + CCO .
Result: 1.04

Task: And what about the compound COC(=O)c1ccccc1 [methyl benzoate] + CCO ?
Result: 0.954

---

# maps each entry to its viscosity
assay: xn = mol fraction of the nth substance listed; conditions: 298.15 K; 100.5 kPa; Liquid; Capillary tube (Ostwald / Ubbelohde) method; x1 = 0.4
API: value field is a number in mPa·s; no unit string.

Past entries and their recorded results:
{"MOLECULE": "CCOC(=O)CC(C)=O [ethyl 3-oxobutanoate] + CCO", "REPORTED_MEASUREMENT": 1.061}
{"MOLECULE": "COC(=O)c1ccccc1 [methyl benzoate] + CCO", "REPORTED_MEASUREMENT": 1.232}
{"MOLECULE": "CCOC(=O)CC(C)C [ethyl 3-methylbutanoate] + CCO", "REPORTED_MEASUREMENT": 0.754}
{"MOLECULE": "CCC(=O)OCc1ccccc1 [benzyl propanoate] + CCO", "REPORTED_MEASUREMENT": 1.401}

Task: So what's the measured viscosity for this one? CC(=O)OCc1ccccc1 [benzyl ethanoate] + CCO
Result: 1.319

---

test: xn = mol fraction of the nth substance listed; details: 318.15 K; 100.5 kPa; Liquid; Capillary tube (Ostwald / Ubbelohde) method; x1 = 0.35
Attribute: viscosity
Provide only the numeric value, understood in mPa·s.

Some compounds with recorded viscosity:
{"COMPOUND": "COC(=O)c1ccccc1 [methyl benzoate] + CCO", "UNIT_OF_MEASUREMENT": "mPa·s", "REPORTED_MEASUREMENT": 0.855}
{"COMPOUND": "CC(=O)OCc1ccccc1 [benzyl ethanoate] + CCO", "UNIT_OF_MEASUREMENT": "mPa·s", "REPORTED_MEASUREMENT": 0.906}
{"COMPOUND": "CCC(=O)OCc1ccccc1 [benzyl propanoate] + CCO", "UNIT_OF_MEASUREMENT": "mPa·s", "REPORTED_MEASUREMENT": 0.95}
{"COMPOUND": "CCOC(=O)CC(C)=O [ethyl 3-oxobutanoate] + CCO", "UNIT_OF_MEASUREMENT": "mPa·s", "REPORTED_MEASUREMENT": 0.751}

We now examine a further compound.
Task: Would you mind telling me what viscosity value was observed for CCOC(=O)CC(C)C [ethyl 3-methylbutanoate] + CCO ?
Result: 0.579

---

Quick list: mass density per entry.
experiment: xn = mol fraction of the nth substance listed; conditions: 318.15 K; 100.5 kPa; Liquid; x1 = 0.65
Provide only the numeric value, understood in kg/m3.

Use these answered entries as a reference point.
{"COMPOUND": "CC(=O)OCc1ccccc1 [benzyl ethanoate] + CCO", "mass density, kg/m3": 984.76}
{"COMPOUND": "CCOC(=O)CC(C)=O [ethyl 3-oxobutanoate] + CCO", "mass density, kg/m3": 955.36}
{"COMPOUND": "CCOC(=O)CC(C)C [ethyl 3-methylbutanoate] + CCO", "mass density, kg/m3": 826}
{"COMPOUND": "CCC(=O)OCc1ccccc1 [benzyl propanoate] + CCO", "mass density, kg/m3": 969.71}
{"COMPOUND": "CCOC(=O)c1ccccc1O [ethyl 2-hydroxybenzoate] + CCO", "mass density, kg/m3": 1046.7}

Then this compound:
Task: Please look up its mass density: COC(=O)c1ccccc1 [methyl benzoate] + CCO
Result: 1005.87

---

test: xn = mol fraction of the nth substance listed; conditions: 298.15 K; 100.5 kPa; Liquid; x1 = 0.45
MEASURED_ATTRIBUTE: mass density (kg/m3)
Field format: number, assumed kg/m3, no unit text.

Previously resolved entries follow.
{"COMPOUND": "CCC(=O)OCc1ccccc1 [benzyl propanoate] + CCO", "mass density, kg/m3": 954.39}
{"COMPOUND": "CC(=O)OCc1ccccc1 [benzyl ethanoate] + CCO", "mass density, kg/m3": 964.29}
{"COMPOUND": "CCOC(=O)CC(C)C [ethyl 3-methylbutanoate] + CCO", "mass density, kg/m3": 834.87}
{"COMPOUND": "CCOC(=O)CC(C)=O [ethyl 3-oxobutanoate] + CCO", "mass density, kg/m3": 937.83}
{"COMPOUND": "CCOC(=O)c1ccccc1O [ethyl 2-hydroxybenzoate] + CCO", "mass density, kg/m3": 1016.38}

Task: # get_value(readout='mass density', item= COC(=O)c1ccccc1 [methyl benzoate] + CCO )
Result: 978.01

---

assay: xn = mol fraction of the nth substance listed; settings: 288.15 K; 100.5 kPa; Liquid; x1 = 0.5
Numbers after ± are expanded uncertainties.
MEASURED_ATTRIBUTE: mass density

Task: Query (compound): CC(=O)OCc1ccccc1 [benzyl ethanoate] + CCO ; field requested: mass density
Result: 984.92 ± 0.22 kg/m3

Task: Next record, please: COC(=O)c1ccccc1 [methyl benzoate] + CCO
Result: 1000.69 ± 0.29 kg/m3

Task: Then this compound: CCOC(=O)CC(C)C [ethyl 3-methylbutanoate] + CCO
Result: 847.78 ± 0.43 kg/m3

Task: # iterate: CCC(=O)OCc1ccccc1 [benzyl propanoate] + CCO
Result: 973.57 ± 0.26 kg/m3

Task: Now consider CCOC(=O)CC(C)=O [ethyl 3-oxobutanoate] + CCO and answer again.
Result: 958.56 ± 0.31 kg/m3

Task: Follow-up item: CCOC(=O)c1ccccc1O [ethyl 2-hydroxybenzoate] + CCO
Result: 1040.36 ± 0.27 kg/m3

---

assay: xn = mol fraction of the nth substance listed; details: 308.15 K; 100.5 kPa; Liquid; Capillary tube (Ostwald / Ubbelohde) method; x1 = 0.75
MEASURED_ATTRIBUTE: viscosity (mPa·s)
Answer with a number only, understood to be in mPa·s.

Sample answers from the record:
{"COMPOUND": "CC(=O)OCc1ccccc1 [benzyl ethanoate] + CCO", "UNIT_OF_MEASUREMENT": "mPa·s", "viscosity": 1.409}
{"COMPOUND": "COC(=O)c1ccccc1 [methyl benzoate] + CCO", "UNIT_OF_MEASUREMENT": "mPa·s", "viscosity": 1.275}

Task: Which measured viscosity value corresponds to CCOC(=O)CC(C)C [ethyl 3-methylbutanoate] + CCO ?
Result: 0.619

Task: Queued: CCOC(=O)CC(C)=O [ethyl 3-oxobutanoate] + CCO
Result: 1.112

Task: Follow-up item: CCC(=O)OCc1ccccc1 [benzyl propanoate] + CCO
Result: 1.509

---

experiment: xn = mol fraction of the nth substance listed; conditions: 298.15 K; 100.5 kPa; Liquid; x1 = 0.55
MEASURED_ATTRIBUTE: mass density (kg/m3)
# value in kg/m3; strip the unit string

{"COMPOUND": "CCOC(=O)c1ccccc1O [ethyl 2-hydroxybenzoate] + CCO", "mass density (kg/m3)": 1043.63}
{"COMPOUND": "CCOC(=O)CC(C)C [ethyl 3-methylbutanoate] + CCO", "mass density (kg/m3)": 840.93}
{"COMPOUND": "CC(=O)OCc1ccccc1 [benzyl ethanoate] + CCO", "mass density (kg/m3)": 985.72}
{"COMPOUND": "COC(=O)c1ccccc1 [methyl benzoate] + CCO", "mass density (kg/m3)": 1003.42}
{"COMPOUND": "CCC(=O)OCc1ccccc1 [benzyl propanoate] + CCO", "mass density (kg/m3)": 973.07}

// below: mass density requested for another compound
Task: Quick one: mass density for CCOC(=O)CC(C)=O [ethyl 3-oxobutanoate] + CCO ?
Result: 958.37
